tested on: L1210; test: In vitro significant inhibitory activity against L1210 leukemia cell lines; type: functional; settings: Mus musculus, read-out: ID50 (the source's name)
measuredEndpoint: IC50 (nM)
# number only, unit nM dropped from output

Problem: Consider the compound CN(C)Cc1ccc(NC2=C(Cl)C(=O)C(Nc3ccc(CN(C)C)cc3)=C(Cl)C2=O)cc1 and give its measured IC50.
Result: 37
